This collection of values is drawn from patent US12331343B2.

- STUDY TARGET: recombinant human FAMIN (Homo sapiens)
- Construct: twin Strep-tag (followed by short linker and TEV cleavage site) (N, cleaved yes); made in house; host or cells: HEK293T
- Sequence (Q8IV20 whole entry): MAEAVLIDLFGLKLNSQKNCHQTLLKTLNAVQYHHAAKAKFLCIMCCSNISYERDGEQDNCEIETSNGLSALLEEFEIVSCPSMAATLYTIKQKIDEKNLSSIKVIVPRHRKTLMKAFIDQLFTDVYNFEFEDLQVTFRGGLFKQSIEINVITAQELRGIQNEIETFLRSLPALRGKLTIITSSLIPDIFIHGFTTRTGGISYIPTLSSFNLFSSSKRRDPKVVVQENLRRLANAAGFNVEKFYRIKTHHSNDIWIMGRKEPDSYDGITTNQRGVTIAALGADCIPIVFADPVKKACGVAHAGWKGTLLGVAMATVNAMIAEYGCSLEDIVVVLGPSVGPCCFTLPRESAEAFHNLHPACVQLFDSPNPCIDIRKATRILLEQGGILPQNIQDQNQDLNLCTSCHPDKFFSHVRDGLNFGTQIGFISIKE
- ASSAY INFO: specificity of FAMIN activity towards purine and pyrimidine nucleosides (substrate consumption, LC-MS)
- Assay type: biochemical
- EXPERIMENTAL PARAMETERS: pure substrate with 10 μg recombinant FAMIN in 100 μl PBS, pH 7.4, 1 h at 37° C. (FIG. 2A, 2N, 2R, 2S)
MEASUREMENT LABEL: metabolised by FAMIN as pure substrate

C[S+](CC[C@H](N)C(=O)[O-])C[C@H]1O[C@@H](n2cnc3c(N)ncnc32)[C@H](O)[C@@H]1O (stereo partly shown)	not
